- Tested on: LXR
- EXPERIMENTAL DETAILS: Fluorescent polarization assay, labeled peptide sensor binding to LXR
- MEASUREMENT CONTEXT: graded symbols O, +, I to IV; key not given
ENDPOINT NAME: Sensors Activity: Fluorescent Polarization Assay LXR

SUBSTANCE	RESULT
TUK-1380: labeled peptide sensor F-LLQQLLTE (SEQ ID NO:12), SRC-1 1434–1441 (fluorescent label)	II+
TUK-1393: labeled peptide sensor R-G-LLRYLLDK, SRC-1 748–755	III+
TUK-1557: labeled peptide sensor R-ILKKLLQE (SEQ ID NO:17), synthetic sequence peptide (label R)	III+
TUK-1385: labeled peptide sensor R-KLVQLLTTT, SRC-1 632–640	II+
TUK-1392: labeled peptide sensor F-G-LLRYLLDK, SRC-1 748–755	II+

Quick request: Sensors Activity: Fluorescent Polarization Assay LXR for each listed item, please.
1. TUK-1382: labeled peptide sensor F-G-LLQQLLTE, SRC-1 1434–1441
2. TUK-1376: labeled peptide sensor F-G-VTLLQLLLG, RIP-140 496–506

1. II+
2. II+

---

- Tested on: RXR
- EXPERIMENTAL DETAILS: Fluorescent polarization assay, labeled peptide sensor binding to RXR
- MEASUREMENT CONTEXT: graded symbols O, +, I to IV; key not given
- Method: I. High-Throughput In Vitro Fluorescence Polarization Assay • Sensor: Rhodamine-labeled L1X1X2L2L3 peptide (final conc.=1–5 nM) • Receptor: Glutathione-S-transferase/nuclear hormone receptor ligand binding domain fusion protein (final conc.=100–200 nM) • Buffer: 10 mM HEPES, 10 mM NaCl, 6 mM magnesium chloride, pH 7.6 Protocol: • 1. Add 90 microliters of peptide/NHR mixture to each well of a 96-well microtiter plate. • 2. Add 10 microliters of test compound per well. • 3. […]
ENDPOINT NAME: Sensors Activity: Fluorescent Polarization Assay RXR

Worked set:
SUBSTANCE	RESULT
TUK-1473: labeled peptide sensor R-QLLRYLLDKD (SEQ ID NO:9), SRC-1 747–756 (label R)	I+
TUK-1385: labeled peptide sensor R-KLVQLLTTT, SRC-1 632–640	II+
TUK-1390: labeled peptide sensor F-LLRYLLDK (SEQ ID NO:3), SRC-1 748–755 (fluorescent label)	II+
TUK-1393: labeled peptide sensor R-G-LLRYLLDK, SRC-1 748–755	II+
TUK-1381: labeled peptide sensor R-LLQQLLTE, SRC-1 1434–1441	I+
TUK-1373: labeled peptide sensor R-G-ILHRLLQE, SRC-1 689–696	II+

Now take the following substance into account.
// TUK-1453: labeled peptide sensor R-LLRYLLD (SEQ ID NO:4), SRC-1 748–754 (R label) : Sensors Activity: Fluorescent Polarization Assay RXR value = I+

---

- TARGET OR SYSTEM: PPARγ (Homo sapiens)
- Sequence (P37231 238-503 limits assumed): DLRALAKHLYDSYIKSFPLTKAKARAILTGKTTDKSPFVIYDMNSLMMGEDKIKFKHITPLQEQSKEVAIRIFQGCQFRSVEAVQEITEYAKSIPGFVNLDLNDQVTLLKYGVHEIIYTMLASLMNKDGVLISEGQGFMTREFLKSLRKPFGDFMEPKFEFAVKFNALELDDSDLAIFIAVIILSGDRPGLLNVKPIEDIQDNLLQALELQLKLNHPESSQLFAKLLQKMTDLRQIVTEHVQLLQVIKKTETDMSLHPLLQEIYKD
- EXPERIMENTAL DETAILS: Fluorescent polarization assay, labeled peptide sensor binding to PPARγ
- MEASUREMENT CONTEXT: graded symbols O, I to IV, key not given
ENDPOINT NAME: Sensors Activity: Fluorescent Polarization Assay PPARγ

Consider the following illustrative entries.
SUBSTANCE	RESULT
TUK-1371: labeled peptide sensor R-ILHRLLQE, SRC-1 689–696	I+
TUK-1473: labeled peptide sensor R-QLLRYLLDKD (SEQ ID NO:9), SRC-1 747–756 (label R)	I+
TUK-1455: labeled peptide sensor R-LRYLLD (SEQ ID NO:5), SRC-1 749–754 (R label)	I+
TUK-1381: labeled peptide sensor R-LLQQLLTE, SRC-1 1434–1441	I+

Here is another substance to look at.
// Sensors Activity: Fluorescent Polarization Assay PPARγ value for TUK-1391: labeled peptide sensor R-LLRYLLDK, SRC-1 748–755 : II+
